# Tested on: DU-145
# protocol_summary: Growth inhibition of human DU145 cells after 48 hrs by SRB assay
# Assay type: functional
# measurement_parameters: DU-145, 48 h
The following molecules are shown together with reported GI50 values.
Supply the numeric figure in µM, leaving out any unit text.

{"columns": ["molecule", "assay_result"],
 "data": [
  ["c1ccc(C(c2ccc(CN3CCNCC3)cc2)C23CC4CC(CC(C4)C2)C3)cc1 (centres undefined)", 4.23],
  ["CN1CCN(CCCc2ccc(C(c3ccccc3)C34CC5CC(CC(C5)C3)C4)cc2)CC1 (centres undefined)", 3.77],
  ["CCN1CCN(CCCc2ccc(C(c3ccccc3)C34CC5CC(CC(C5)C3)C4)cc2)CC1 (centres undefined)", 5.33],
  ["CCN1CCN(Cc2ccc(C(c3ccccc3)C34CC5CC(CC(C5)C3)C4)cc2)CC1 (centres undefined)", 5.73],
  ["CN1CCN(Cc2ccc(C(c3ccccc3)C34CC5CC(CC(C5)C3)C4)cc2)CC1 (centres undefined)", 3.01],
  ["O=c1[nH]cc(F)c(=O)[nH]1 [FLUOROURACIL]", 20],
  ["c1ccc(C(c2ccc(CCCN3CCNCC3)cc2)C23CC4CC(CC(C4)C2)C3)cc1 (centres undefined)", 2.83],
  ["c1ccc(C(c2ccc(CCCN3CCCCC3)cc2)C23CC4CC(CC(C4)C2)C3)cc1 (centres undefined)", 5.18]
]}

Could you now look at the following molecule, please?
Assign GI50 to the following record: c1ccc(C(c2ccc(CN3CCCCC3)cc2)C23CC4CC(CC(C4)C2)C3)cc1 (centres undefined)
8.98
